- Protocol summary: Efflux ratio of permeability from basal to apical to apical to basal side of MDCK cells
- Type: ADME, cell-based, Canis lupus familiaris
- Condition description: dog

| Mol | efflux ratio |
| --- | --- |
| O=C(NOC[C@H](O)CO)c1ccc2[nH]ncc2c1Nc1ccc(I)cc1F | 3.5 |

###

- Protocol summary: Half life in rat at 1 mg/kg, iv
- Assay type: ADME, organism-based
- Set-up: dose 1 mg/kg, route intravenous
- Condition description: in vivo
Reported endpoint: half-life (h)

| Mol | Reported endpoint | Measurement unit | Observed |
| --- | --- | --- | --- |
| O=C(NOCCO)c1ccc2[nH]ncc2c1Nc1ccc(I)cc1F | half-life | h | 1.4 |
| O=C(NOC[C@H](O)CO)c1ccc2cnsc2c1Nc1ccc(I)cc1F | half-life | h | 1.6 |
| O=C(NOCCO)c1ccc2[nH]ncc2c1Nc1ccc(Br)cc1F | half-life | h | 0.36 |

###

- Study target: Dual specificity mitogen-activated protein kinase kinase 1 (Homo sapiens, UniProt Q02750)
- Sequence (Q02750 whole entry): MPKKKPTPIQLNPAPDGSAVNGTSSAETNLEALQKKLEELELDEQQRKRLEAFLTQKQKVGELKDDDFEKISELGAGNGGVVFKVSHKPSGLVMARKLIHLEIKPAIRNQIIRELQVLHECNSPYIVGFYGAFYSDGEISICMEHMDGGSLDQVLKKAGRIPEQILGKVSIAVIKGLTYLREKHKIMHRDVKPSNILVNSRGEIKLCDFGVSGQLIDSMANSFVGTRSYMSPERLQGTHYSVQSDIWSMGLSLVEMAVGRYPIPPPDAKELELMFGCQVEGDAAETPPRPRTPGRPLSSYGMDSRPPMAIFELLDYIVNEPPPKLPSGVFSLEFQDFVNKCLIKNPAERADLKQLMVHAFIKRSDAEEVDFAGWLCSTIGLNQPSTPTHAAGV
- Protocol summary: Inhibition of MEK1-mediated ERK1 phosphorylation in human A375 cells after 2 hrs by immunofluorescence high content imaging
pEC50: −log10 of the molar value.

| Mol | pEC50 |
| --- | --- |
| O=C(NOCCO)c1ccc2[nH]ncc2c1Nc1ccc(Br)cc1F | 8.19 |
| O=C(NOC[C@H](O)CO)c1ccc2cnsc2c1Nc1ccc(I)cc1F | 8.96 |
| O=C(NOC[C@H](O)CO)c1ccc2[nH]ncc2c1Nc1ccc(I)cc1F | 8.43 |
| C[C@H](O)CONC(=O)c1oc2c(F)cncc2c1Nc1ccc(I)cc1F | 8.14 |
| CCONC(=O)c1ccc2[nH]ncc2c1Nc1ccc(I)cc1F | 8.62 |

###

- Protocol summary: AUC in mouse at 1 mg/kg, iv
- Format: ADME, organism-based, Plasma
- Design: dose 1 mg/kg, route intravenous
- Condition description: plasma

| Mol | AUC / µM·h |
| --- | --- |
| C[C@H](O)CONC(=O)c1oc2c(F)cncc2c1Nc1ccc(I)cc1F | 4.42 |

###

- Protocol summary: Plasma protein binding in mouse
- Assay type: ADME, cell-free
- Condition description: read-out: PPB (converted)
The entries below come with measured fraction unbound values attached.
Reported endpoint: fraction unbound

| Mol | Observed |
| --- | --- |
| O=C(NOCCO)c1ccc2[nH]ncc2c1Nc1ccc(I)cc1F | 0.03 |
| C[C@H](O)CONC(=O)c1oc2c(F)cncc2c1Nc1ccc(I)cc1F | 0.016 |

###

- Test system: A-375
- Protocol summary: Antiproliferative activity against human A375 cells after 72 hrs by CellTiterGlo assay
- Condition description: A-375, 72 h
The entries below come with measured EC50 values attached.

| Mol | EC50 |
| --- | --- |
| O=C(NOCCO)c1ccc2[nH]ncc2c1Nc1ccc(I)cc1F | 0.002 µM |
| O=C(NOCCO)c1ccc2[nH]ncc2c1Nc1ccc(Br)cc1F | 0.019 µM |
| O=C(NOC[C@H](O)CO)c1ccc2[nH]ncc2c1Nc1ccc(I)cc1F | 0.012 µM |
| CCONC(=O)c1ccc2[nH]ncc2c1Nc1ccc(I)cc1F | 0.0049 µM |
| O=C(NOCC1CC1)c1ccc2[nH]ncc2c1Nc1ccc(I)cc1F | 0.009 µM |
| O=C(NOC[C@H](O)CO)c1ccc2cnsc2c1Nc1ccc(I)cc1F | 0.01 µM |
| O=C(NOC[C@H](O)CO)c1oc2ccncc2c1Nc1ccc(I)cc1F | 0.264 µM |
| C[C@H](O)CONC(=O)c1oc2c(F)cncc2c1Nc1ccc(I)cc1F | 0.023 µM |
| O=C(NOCCO)c1ccc2cnsc2c1Nc1ccc(I)cc1F | 0.007 µM |
